System: NCI-H460 lung
Experiment: NCI-60 one-dose screen, 48 h (100 = growth as untreated, 0 = no growth, -100 = all killed)
Conditions: 10 µM unless noted
This is part of a sample that, as a whole, favours compounds with a hit. Of some 83,000 tested, about 20% had one in any assay. Activity calls are given as the source filed them. The calls were made as follows: active = growth percent below 10; inactive = the rest.
Observable: growth

Examples with answers:
O=C(Nc1ncc(Cc2cccc(C(F)(F)F)c2)s1)c1ccc2c(c1)OCCO2 : 6.46% (active)
Nc1nc(CSc2n[nH]c(N)n2)nc(Nc2ccccc2)n1 : 103% (inactive)
Cc1ccc(Cc2cnc(NC(=O)c3cc(C)oc3C)s2)cc1 : 31.3% (inactive)
COc1ccc(-c2[nH]c3ccccc3c2-c2ccc(OC)cc2)cc1 : 43.2% (inactive)
O=C(/C=C/c1cccs1)Nc1ncc(Cc2ccc(Cl)c(Cl)c2)s1 : 48% (inactive)
COc1c(F)cc(-n2c(C(=O)N3CC(F)C3)cc3cccnc32)cc1F : 106% (inactive)
Nc1nc2ccccc2c2c(=O)c3ccc(Cl)cc3sc12 : 72.7% (inactive)
Nc1nc(Nc2cccnc2)sc1C(=O)c1ccccc1F : 21.7% (inactive)
COc1ccc(-c2ccc(-c3ccc(C(=N)N)cn3)s2)cc1Cl : -93% (active)
CN1CCN(C(=O)OCc2nc3c(N4CCOCC4)nc(Cl)nc3n2C)CC1 : 6.7% (active)

Query :: Answer with the recorded growth for the compound listed here: O=[N+]([O-])c1cc(C(F)(F)F)ccc1Sc1ccc(C(F)(F)F)cc1[N+](=O)[O-]
Result :: 74.4% (inactive)

Query :: Give reported growth value for Cc1cc(N2CCCCC2)nc(NCc2cc(Nc3ccnc4cc(Cl)ccc34)ccc2F)n1
Result :: -22.7% (active)

Query :: Name the recorded growth of the item CN1CCCc2cc(/C=C3\SC(=S)N(C(Cc4ccc(O)cc4)C(=O)O)C3=O)ccc21 (stereo not given) in your answer.
Result :: 107% (inactive)

Query :: Please give measured growth of the following entry: CCOC(=O)c1cc2c(n1Cc1cc(OC)cc(OC)c1Br)-c1nc(NC(C)=O)sc1CCC2
Result :: 82.2% (inactive)

Query :: Specify measured growth for CCN(CC)/C([O-])=c1\cccc\c1=C1\N=C(c2ccccc2)N=C1[n+]1ccc(-c2ccccc2)cc1 .
Result :: 103% (inactive)
